The entries below come with measured growth values attached.
Tested on: HS 578T breast
Procedure Details: NCI-60 one-dose screen, 48 h (100 = growth as untreated, 0 = no growth, -100 = all killed)
Experimental Setup: 10 µM
Experimental: Growth inhibition of the HS 578T human tumor cell line is measured as a screen for anti-cancer activity. Cells are grown in 96 well plates and exposed to the test compound for 48 hours. Compounds are tested at a single concentration, which is 10^-5 M for most compounds. The reported endpoint is percent growth (GI% or GIPRCNT), where numbers from 0 - 100% represent growth inhibition, and numbers from -100% - 0 represent cell death. For example, a value of 40 represents 60% growth inhibition. […]
About 83,000 compounds went through this panel and 20% of them were active in at least one assay; those are over-represented in the sample as a whole. Active and inactive are the calls of the source. Rule for the calls: active = growth percent below 10; inactive = the rest.

{"columns": ["Compound", "growth"],
 "data": [
  ["COC[C@@H](CC(C)C)N=C1N/C(=C\\c2ccc3ncsc3c2)C(=O)N1C", "15.4% (inactive)"],
  ["CN1C(=O)N(C)C2SC(N/N=C/c3ccccc3F)=NC21 (centres undefined)", "85.6% (inactive)"],
  ["C#CCNC(=O)[C@]12CCC(C)(C)C[C@H]1C1=CC[C@@H]3[C@@](C)(CCC#N)[C@H](C(=C)C)CC[C@@]3(C)[C@]1(C)CC2", "79.4% (inactive)"],
  ["CN(CCF)c1ccc(/C=C/C(=O)c2ccc(N)cc2O)cc1", "112% (inactive)"],
  ["COc1ccc(Nc2nc(N)n(Cc3cccc(Br)c3)n2)cc1", "-12.3% (active)"],
  ["CN1CCc2c(sc3ncnc(N/N=C/c4ccc5ccccc5c4)c23)C1", "62.3% (inactive)"],
  ["O=C(c1ccc(O)cc1)C1[C@H](c2ccc(Br)cc2)[C@@H](c2ccccc2)NC12C(=O)Nc1ccc(Br)cc12 (some centres undefined)", "-6.2% (active)"],
  ["CC1=C(C(=O)OC(C)C)C(c2ccc(O)cc2)NC(=S)N1 (centres undefined)", "103% (inactive)"],
  ["O=C(Nc1ccc(Cl)c(C(F)(F)F)c1)c1cncc(C#Cc2cnc3ccc(N4CCOCC4)nn23)c1", "-25.3% (active)"]
]}

====

System: MDA-MB-435 melanoma
Procedure Details: NCI-60 one-dose screen, 48 h
Experimental Setup: 10 µM
Compounds without any hit were thinned out: in the full panel of roughly 83,000, 20% have a hit. Active and inactive are the calls of the source. Rule for the calls: active = growth percent below 10; inactive = the rest.
Possible outcomes: True for active, False for inactive

{"columns": ["Compound", "Classification"],
 "data": [
  ["Cc1ccc(-c2cc(-c3cc4ccccc4nc3Cl)[nH]c(=O)n2)cc1", "False"],
  ["CO[C@@H]1CSSC1Cn1nc(-c2ccc(Oc3ccccc3)cc2)c2c(N)ncnc21 (some centres undefined)", "True"],
  ["Nc1nc(-c2ccccc2)cs1", "False"],
  ["C=CC(=O)Nc1ccc(C(=O)/C=C/c2ccc(N(C)CCF)cc2)c(O)c1", "True"],
  ["Cc1ccc(-c2nc3ccc(C(=O)N=Nc4c(O)[nH]c5ccc(Cl)cc45)cc3[nH]2)cc1", "True"],
  ["CCCn1c(O)c(N=Nc2nc(-c3cc4ccccc4oc3=O)cs2)c2cc(Br)ccc21", "False"],
  ["COc1cccc(-c2ccc(/C=N/NC(=O)c3[nH]c4ccc(Br)cc4c3-c3ccccc3)o2)c1", "True"],
  ["O=c1oc2ccc(-c3ccc(F)cc3F)cc2c(=O)n1-c1ccc(F)cc1", "True"],
  ["COc1cnc2c(c1)C(=O)c1c-2n(CCCNC(C)C)c(=O)c2cc(OC)c(OC)cc12", "False"],
  ["COc1cc(/C=C/C(=O)c2ccc(NC(=O)CSc3nnc(-c4c[nH]c5ccccc45)n3-c3ccccc3)cc2)cc(OC)c1OC", "False"],
  ["CN(C)c1cccc2c(S(=O)(=O)Nc3cccc(-c4csc(NC(=O)CCCCCN5CCN(c6cc7c(cc6F)C(=O)N(C6CCC(=O)NC6=O)C7=O)CC5)n4)c3)cccc12 (centres undefined)", "False"],
  ["CS(=O)(=O)Nc1ccc(-c2ccc3c(c2)ncn3-c2ccc(NC(=O)Nc3ccc(Cl)c(C(F)(F)F)c3)cc2)cc1", "True"],
  ["CCOC(=O)c1sc(N/N=C(\\C)c2ccc3c(c2)Nc2ccccc2S3)nc1C", "False"],
  ["COc1ccc(NC(=O)Cn2c(/C=C/c3ccc(N(C)C)cc3)nc3ccccc3c2=O)cc1", "False"],
  ["Cc1ccc(S(=O)(=O)c2nc(-c3ccccc3)oc2S(=O)(=O)CC(=O)N2CCCC2)cc1", "True"],
  ["COc1cc(NC(=O)CSc2nnc(-c3ccc4nc(-c5ccc(Cl)cc5)[nH]c4c3)o2)cc(OC)c1OC", "False"],
  ["O=C(CSc1ccc(-c2ccc(Cl)cc2)nn1)Nc1ccc(Cl)c(C(F)(F)F)c1", "True"],
  ["O=C(CNc1nc(-c2ccccc2)cs1)Nc1ccc([N+](=O)[O-])cc1", "False"],
  ["CN1CCc2c(sc3ncnc(N/N=C/c4ccc5ccccc5c4)c23)C1", "False"]
]}
